- Species: Rattus norvegicus
- assay overview: DrugMatrix - Regimen: Daily Repeat
- Assay type: toxicity, organism-based, Sprague-Dawley
- Design: regimen Daily Repeat, gender Male, age 6-8 weeks
- measurement setup: in vivo, ip, 160 mg/kg, […], tissue Blood, route intraperitoneal, dose level High, time 28 day, vehicle 100 % SALINE
value type: ABSOLUTE SEGMENTED NEUTROPHIL

stdin: Param item = "NCC[C@H](O)C(=O)N[C@@H]1C[C@H](N)[C@@H](O[C@H]2O[C@H](CN)[C@@H](O)[C@H](O)[C@H]2O)[C@H](O)[C@H]1O[C@H]1O[C@H](CO)[C@@H](O)[C@H](N)[C@H]1O" ; retrieve measured ABSOLUTE SEGMENTED NEUTROPHIL.
stdout: 1340 cells/µL

====

- Organism: Rattus norvegicus
- assay overview: DrugMatrix - Regimen: Daily Repeat
- Assay type: toxicity, organism-based, Sprague-Dawley
- Parameters: regimen Daily Repeat, gender Male, age 6-8 weeks
- measurement setup: in vivo, po, 0 mg/kg, 72 h, tissue Plasma, route oral GAVAGE, dose level Control, time 3 day, […]
value type: TOTAL BILIRUBIN (mg/dL)
Unit mg/dL implied. Number only.

compound: CCCC[C@@H](CC)COC(=O)c1ccccc1C(=O)OC[C@@H](CC)CCCC [BIS(2-ETHYLHEXYL)PHTHALATE]
value type: TOTAL BILIRUBIN
display unit: mg/dL
measured: 0.13

compound: COCc1c(C(C)C)nc(C(C)C)c(/C=C/[C@@H](O)C[C@@H](O)CC(=O)O)c1-c1ccc(F)cc1
value type: TOTAL BILIRUBIN
display unit: mg/dL
measured: 0.18

compound: COc1ccc2c(c1)c(CC(=O)OCC(=O)O)c(C)n2C(=O)c1ccc(Cl)cc1
value type: TOTAL BILIRUBIN
display unit: mg/dL
measured: 0.17

compound: Oc1c(Cl)cc(Cl)cc1Sc1cc(Cl)cc(Cl)c1O
value type: TOTAL BILIRUBIN
display unit: mg/dL
measured: 0.2

compound: Cn1cnc([N+](=O)[O-])c1Sc1ncnc2nc[nH]c12
value type: TOTAL BILIRUBIN
display unit: mg/dL
measured: 0.27

stdin: Need TOTAL BILIRUBIN of CSc1ccc2c(c1)N(CCC1CCCCN1C)c1ccccc1S2 (centres undefined) , thanks.
stdout: 0.23

stdin: Endpoint output: TOTAL BILIRUBIN of "CCCCCCCCCc1ccc(O)cc1" . Value?
stdout: 0.18

stdin: Which TOTAL BILIRUBIN value belongs to CC(C)(Oc1ccc(CCNC(=O)c2ccc(Cl)cc2)cc1)C(=O)O [BEZAFIBRATE] ?
stdout: 0.22

stdin: Consider the compound "c1ccc2[nH]c(-c3cscn3)nc2c1" and give its measured TOTAL BILIRUBIN.
stdout: 0.13

====

Quick reference: LIPASE of the listed items.
- Species on record: Rattus norvegicus
- assay overview: DrugMatrix - Regimen: Daily Repeat
- Type: toxicity, organism-based, Sprague-Dawley
- Design: regimen Daily Repeat, gender Male, age 6-8 weeks
- measurement setup: in vivo, iv, 0 mg/kg, 72 h, tissue Plasma, dose level Control, time 3 day, vehicle 100 % SALINE
Lab book: enter the figure in u/L, no units written.

In the examples that follow, each entry is paired with its recorded LIPASE.
compound: CN(N=O)C(=O)N[C@@H](C=O)[C@@H](O)[C@H](O)[C@H](O)CO [STREPTOZOCIN]
measured: 8.83

compound: NCC[C@H](O)C(=O)N[C@@H]1C[C@H](N)[C@@H](O[C@H]2O[C@H](CN)[C@@H](O)[C@H](O)[C@H]2O)[C@H](O)[C@H]1O[C@H]1O[C@H](CO)[C@@H](O)[C@H](N)[C@H]1O [AMIKACIN]
measured: 9.5

compound: CC1(C)S[C@@H]2[C@H](NC(=O)[C@H](NC(=O)N3CCNC3=O)c3ccccc3)C(=O)N2[C@H]1C(=O)O [AZLOCILLIN]
measured: 10

Shift focus to the following entry.
stdin: Entry under review: CC[C@@]1(O)C(=O)OCc2c1cc1n(c2=O)Cc2cc3ccccc3nc2-1 [CAMPTOTHECIN] . Reported LIPASE?
stdout: 10.83
